- procedure.summary: Half life in human liver microsomes
- Type: ADME, Microsome
metric.name: half-life

For orientation, consider the following solved cases.
C[C@@H]1CCCN1CCCOc1ccc(C2=NNC(=O)CC2)cc1    > 40 min
C[C@@H]1CCCN1CCCOc1ccc(C2=NNC(=O)C(C)(C)C2)cc1    > 40 min

Incoming: Determine its reported half-life: CC1CC(=O)NN=C1c1ccc(OCCCN2CCC[C@H]2C)cc1 (stereo in doubt; 19a)
Outgoing: > 40 min

---

- procedure.summary: Cmax in rat at 5 mg/kg, po
- Format: ADME, organism-based
- Design: dose 5 mg/kg, route oral
- condition.description: in vivo
metric.name: Cmax (ng/mL)
Please give a number only; it is taken to be in ng/mL.

C[C@@H]1CCCN1CCCOc1ccc(C2=NNC(=O)C(C)(C)C2)cc1    189
CC1CC(=O)NN=C1c1ccc(OCCCN2CCC[C@H]2C)cc1 (stereo in doubt; 19a)    301

Incoming: Determine its reported Cmax: C[C@@H]1CCCN1CCCOc1ccc(C2=NNC(=O)CC2)cc1
Outgoing: 376

---

- subject.of.test: Histamine H3 receptor (Homo sapiens, UniProt Q9Y5N1)
- Sequence (Q9Y5N1 whole entry): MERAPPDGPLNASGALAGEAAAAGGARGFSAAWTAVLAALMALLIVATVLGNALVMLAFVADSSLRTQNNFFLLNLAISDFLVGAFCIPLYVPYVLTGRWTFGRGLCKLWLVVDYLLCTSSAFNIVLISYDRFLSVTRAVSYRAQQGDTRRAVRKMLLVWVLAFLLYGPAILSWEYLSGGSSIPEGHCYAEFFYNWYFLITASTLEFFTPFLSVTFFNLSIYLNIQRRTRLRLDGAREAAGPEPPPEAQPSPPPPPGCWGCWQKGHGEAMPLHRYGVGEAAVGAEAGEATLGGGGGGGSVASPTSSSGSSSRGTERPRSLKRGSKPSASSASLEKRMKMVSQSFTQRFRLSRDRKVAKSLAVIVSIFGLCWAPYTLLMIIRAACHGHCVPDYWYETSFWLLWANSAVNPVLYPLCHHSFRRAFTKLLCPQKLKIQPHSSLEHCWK
- procedure.summary: Inverse agonist activity at human histamine H3 receptor by [35S]GTPgammaS binding assay
Listed next: entries and their corresponding pEC50.
Formally, pEC50 is defined as -log10 of the concentration c, with c in mol/L.

For orientation, consider the following solved cases.
CC1CC(=O)NN=C1c1ccc(OCCCN2CCC[C@H]2C)cc1 (single isomer, unassigned; isomer 2)    8.85
CC1CC(=O)NN=C1c1ccc(OCCCN2CCC[C@H]2C)cc1 (stereo in doubt; 19a)    8.89
C[C@@H]1CCCN1CCCOc1ccc(C2=NNC(=O)C(C)(C)C2)cc1    9.14

Incoming: Determine its reported pEC50: C[C@@H]1CCCN1CCCOc1ccc(C2=NNC(=O)CC2)cc1
Outgoing: 9.15

---

- subject.of.test: Cytochrome P450 2C19 (Homo sapiens, UniProt P33261)
- Sequence (P33261 whole entry): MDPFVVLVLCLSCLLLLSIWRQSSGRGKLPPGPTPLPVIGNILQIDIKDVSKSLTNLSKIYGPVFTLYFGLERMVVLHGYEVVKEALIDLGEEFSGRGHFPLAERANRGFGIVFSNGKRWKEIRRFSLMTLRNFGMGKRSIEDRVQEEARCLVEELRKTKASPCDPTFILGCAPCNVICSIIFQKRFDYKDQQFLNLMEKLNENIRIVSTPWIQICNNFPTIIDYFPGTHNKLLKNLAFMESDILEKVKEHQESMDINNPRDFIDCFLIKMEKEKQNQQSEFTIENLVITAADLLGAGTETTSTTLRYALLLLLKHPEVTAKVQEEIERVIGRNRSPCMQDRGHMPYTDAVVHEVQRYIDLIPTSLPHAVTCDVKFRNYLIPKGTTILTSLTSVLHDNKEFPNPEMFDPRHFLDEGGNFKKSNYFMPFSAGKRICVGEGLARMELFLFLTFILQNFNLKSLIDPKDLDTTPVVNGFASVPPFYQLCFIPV
pIC50: −log10 of the molar value.
Listed next: entries and their corresponding pIC50.

For orientation, consider the following solved cases.
C[C@@H]1CCCN1CCCOc1ccc(C2=NNC(=O)C(C)(C)C2)cc1    < 4.52
CC1CC(=O)NN=C1c1ccc(OCCCN2CCC[C@H]2C)cc1 (stereo in doubt; 19a)    < 4.52

Then this compound:
Incoming: Report its pIC50 with Cytochrome P450 2C19 (Homo sapiens, UniProt P33261) as the test system: CC1CC(=O)NN=C1c1ccc(OCCCN2CCC[C@H]2C)cc1 (single isomer, unassigned; isomer 2)
Outgoing: < 4.52

---

- procedure.summary: Half life in monkey liver microsomes
- Assay type: ADME, Macaca mulatta, Microsome
- condition.description: rhesus monkey
metric.name: half-life

Incoming: Determine its reported half-life: C[C@@H]1CCCN1CCCOc1ccc(C2=NNC(=O)CC2)cc1
Outgoing: > 40 min

Incoming: Determine its reported half-life: CC1CC(=O)NN=C1c1ccc(OCCCN2CCC[C@H]2C)cc1 (stereo in doubt; 19a)
Outgoing: > 40 min

Incoming: Determine its reported half-life: C[C@@H]1CCCN1CCCOc1ccc(C2=NNC(=O)C(C)(C)C2)cc1
Outgoing: > 40 min

---

Consider the following log10 Ki values measured on Histamine H3 receptor (Homo sapiens).
All values: log10 Ki [nM].

For orientation, consider the following solved cases.
O=C1CCC(c2ccc(OCCCN3CCCC3)cc2)=NN1    1.87
C[C@@H]1CCCN1CCCOc1ccc(C2=NN(CC(F)(F)F)C(=O)CC2)cc1    0.70
CC(C)N1N=C(c2ccc(OCCCN3CCC[C@H]3C)cc2)CCC1=O    0.95
C[C@@H]1CCCN1CCCOc1ccc(C2=NNC(=O)C(c3ccccn3)C2)cc1 (mixture of isomers)    0.94

Incoming: Report its log10 Ki with Histamine H3 receptor (Homo sapiens) as the test system: C[C@@H]1CCCN1CCCOc1ccc(C2=NN(c3ccccc3)C(=O)CC2)cc1
Outgoing: 1.00

Incoming: Report its log10 Ki with Histamine H3 receptor (Homo sapiens) as the test system: CC1CC(=O)NN=C1c1ccc(OCCCN2CCCC2)cc1 (racemic)
Outgoing: 1.92

---

- subject.of.test: Cytochrome P450 1A2 (Homo sapiens, UniProt P05177)
- Sequence (P05177 whole entry): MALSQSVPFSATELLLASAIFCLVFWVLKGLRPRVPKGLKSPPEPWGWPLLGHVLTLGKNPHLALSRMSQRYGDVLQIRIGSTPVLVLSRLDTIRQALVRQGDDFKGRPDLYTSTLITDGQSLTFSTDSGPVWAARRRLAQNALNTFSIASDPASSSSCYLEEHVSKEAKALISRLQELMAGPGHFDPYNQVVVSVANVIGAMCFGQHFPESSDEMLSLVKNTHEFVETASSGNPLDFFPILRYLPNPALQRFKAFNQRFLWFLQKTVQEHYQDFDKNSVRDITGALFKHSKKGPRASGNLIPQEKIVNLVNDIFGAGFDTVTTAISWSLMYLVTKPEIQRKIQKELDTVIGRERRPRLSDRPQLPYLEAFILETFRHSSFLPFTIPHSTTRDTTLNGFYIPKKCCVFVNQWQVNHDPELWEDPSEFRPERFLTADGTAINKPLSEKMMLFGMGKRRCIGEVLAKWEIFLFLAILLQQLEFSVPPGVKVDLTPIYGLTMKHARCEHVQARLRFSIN
metric.name: IC50

CC1CC(=O)NN=C1c1ccc(OCCCN2CCC[C@H]2C)cc1 (single isomer, unassigned; isomer 2)    > 30 µM

Incoming: Determine its reported IC50: CC1CC(=O)NN=C1c1ccc(OCCCN2CCC[C@H]2C)cc1 (stereo in doubt; 19a)
Outgoing: > 30 µM

---

- procedure.summary: AUC in rat at 5 mg/kg, po
- Format: ADME, organism-based, Plasma
- Set-up: dose 5 mg/kg, route oral
- condition.description: plasma
metric.name: AUC (ng·h/mL)
Please give a number only; it is taken to be in ng·h/mL.

Incoming: Determine its reported AUC: C[C@@H]1CCCN1CCCOc1ccc(C2=NNC(=O)CC2)cc1
Outgoing: 1830

Incoming: Determine its reported AUC: CC1CC(=O)NN=C1c1ccc(OCCCN2CCC[C@H]2C)cc1 (stereo in doubt; 19a)
Outgoing: 1360

Incoming: Determine its reported AUC: C[C@@H]1CCCN1CCCOc1ccc(C2=NNC(=O)C(C)(C)C2)cc1
Outgoing: 837

---

- procedure.summary: Plasma protein binding in rat
- Assay type: ADME, cell-free
- condition.description: read-out: PPB (converted)
metric.name: fraction unbound
Form rule: numeric answer, no unit written next to it.

Incoming: Determine its reported fraction unbound: C[C@@H]1CCCN1CCCOc1ccc(C2=NNC(=O)C(C)(C)C2)cc1
Outgoing: 0.72

---

- procedure.summary: Plasma protein binding in human
- Type: ADME, cell-free
- condition.description: read-out: PPB (converted)
metric.name: fraction unbound

Incoming: Determine its reported fraction unbound: C[C@@H]1CCCN1CCCOc1ccc(C2=NNC(=O)C(C)(C)C2)cc1
Outgoing: 0.74

---

- procedure.summary: Half life in rat at 1 mg/kg, iv
- Assay type: ADME, organism-based
- Design: dose 1 mg/kg, route intravenous
- condition.description: in vivo
Listed next: entries and their corresponding half-life.
Please give a number only; it is taken to be in h.

For orientation, consider the following solved cases.
C[C@@H]1CCCN1CCCOc1ccc(C2=NNC(=O)CC2)cc1    1.1
C[C@@H]1CCCN1CCCOc1ccc(C2=NNC(=O)C(C)(C)C2)cc1    1.9

Then this molecule:
Incoming: Determine its reported half-life: CC1CC(=O)NN=C1c1ccc(OCCCN2CCC[C@H]2C)cc1 (stereo in doubt; 19a)
Outgoing: 1.8

---

- subject.of.test: UniProt:P08684
- Sequence (P08684 whole entry): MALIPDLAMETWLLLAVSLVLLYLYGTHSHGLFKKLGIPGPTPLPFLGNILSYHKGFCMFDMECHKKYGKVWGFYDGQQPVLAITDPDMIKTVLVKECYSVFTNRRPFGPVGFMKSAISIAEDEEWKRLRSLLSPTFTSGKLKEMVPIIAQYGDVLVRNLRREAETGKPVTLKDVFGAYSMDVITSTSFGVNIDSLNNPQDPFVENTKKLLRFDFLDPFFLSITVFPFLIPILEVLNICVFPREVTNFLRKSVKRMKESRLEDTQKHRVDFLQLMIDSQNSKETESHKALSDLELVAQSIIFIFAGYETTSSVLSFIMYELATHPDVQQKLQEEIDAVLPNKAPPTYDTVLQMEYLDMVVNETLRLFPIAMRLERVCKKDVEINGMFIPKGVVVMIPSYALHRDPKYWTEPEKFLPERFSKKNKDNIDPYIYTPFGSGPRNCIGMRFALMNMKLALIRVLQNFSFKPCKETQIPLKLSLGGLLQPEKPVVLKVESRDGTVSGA
metric.name: IC50

C[C@@H]1CCCN1CCCOc1ccc(C2=NNC(=O)CC2)cc1    > 11 µM

Incoming: Report its IC50 with UniProt:P08684 as the test system: CC1CC(=O)NN=C1c1ccc(OCCCN2CCC[C@H]2C)cc1 (stereo in doubt; 19a)
Outgoing: > 30 µM

---

Consider the following log10 Ki values measured on Histamine H3 receptor (Rattus norvegicus, UniProt Q9QYN8).
Sequence (Q9QYN8 whole entry): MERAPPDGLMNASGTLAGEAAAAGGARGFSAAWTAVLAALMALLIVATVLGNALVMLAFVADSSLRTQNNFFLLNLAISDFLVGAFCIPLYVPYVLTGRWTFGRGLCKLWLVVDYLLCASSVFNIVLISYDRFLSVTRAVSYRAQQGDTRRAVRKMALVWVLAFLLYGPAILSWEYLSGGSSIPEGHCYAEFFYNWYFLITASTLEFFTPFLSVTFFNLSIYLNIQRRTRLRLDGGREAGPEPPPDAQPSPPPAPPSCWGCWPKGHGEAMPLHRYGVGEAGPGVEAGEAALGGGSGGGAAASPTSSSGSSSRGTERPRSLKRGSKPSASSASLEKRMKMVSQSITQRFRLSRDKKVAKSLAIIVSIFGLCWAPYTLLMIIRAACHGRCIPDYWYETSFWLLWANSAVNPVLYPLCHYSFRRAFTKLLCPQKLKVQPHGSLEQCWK
All values: log10 Ki [nM].

C[C@@H]1CCCN1CCCOc1ccc(C2=NNC(=O)C(c3ccccn3)C2)cc1 (mixture of isomers)    1.62
CC1CC(=O)NN=C1c1ccc(OCCCN2CCC[C@H]2C)cc1 (single isomer, unassigned; isomer 2)    1.30
C[C@@H]1CCCN1CCCOc1ccc(C2=NNC(=O)CC2c2ccccn2)cc1 (mixture of isomers)    1.32

Incoming: Determine its reported log10 Ki: O=C1CCC(c2ccc(OCCCN3CCCC3)cc2)=NN1
Outgoing: 2.41

Incoming: Determine its reported log10 Ki: CC1CC(c2ccc(OCCCN3CCC[C@H]3C)cc2)=NNC1=O (mixture of isomers)
Outgoing: 0.60

Incoming: Determine its reported log10 Ki: C[C@@H]1CCCN1CCCOc1ccc(C2=NNC(=O)CC2)cc1
Outgoing: 0.94

Incoming: Determine its reported log10 Ki: C[C@@H]1CCCN1CCCOc1ccc(C2=NN(c3ccccn3)C(=O)CC2)cc1
Outgoing: 1.62

Incoming: Determine its reported log10 Ki: C[C@@H]1CCCN1CCCOc1ccc(C2=NN(C)C(=O)CC2)cc1
Outgoing: 1.20

Incoming: Determine its reported log10 Ki: CC1CC(=O)NN=C1c1ccc(OCCCN2CCC[C@H]2C)cc1 (mixture of isomers)
Outgoing: 1.26
